target: Human IP6K1 (Homo sapiens); construct: GST (N, cleaved yes); made in house; host or cells: C43 E. coli, pGEX-6P-2; assay: IP6K1 high-throughput screen of the Sigma LOPAC (ADP-Glo Max, single point); format: biochemical; settings: LOPAC single-point screen, ADP-Glo Max raw signal per well
Counter-ions that a name gives are not always drawn.

MOLECULE | Raw Signal
CCN(CCCl)Cc1ccccc1Br.Cl [DSP-4 hydrochloride] | 57186
CC(C)(C)NCC(O)c1ccc(O)c(CO)c1.CC(C)(C)NCC(O)c1ccc(O)c(CO)c1.O=S(=O)(O)O (centres unmarked) [Albuterol hemisulfate] | 54773
CCCNCC(O)COc1ccccc1C(=O)CCc1ccccc1 (centres unmarked) [Propafenone hydrochloride] | 54187
O=C1CCC(N2C(=O)c3ccccc3C2=O)C(=O)N1 (racemic) [(±)-Thalidomide] | 54848
COc1cccc2c1[C@@H]1CN(CCCCn3c(=O)[nH]c4c(sc5ncc(-c6ccccc6)nc54)c3=O)C[C@@H]1CO2 [Fiduxosin hydrochloride] | 56814
COC(=O)c1cc2c(cn1)[nH]c1ccccc12 [Methyl beta-carboline-3-carboxylate] | 53830
Cl.Clc1ccc(Cn2c(CN3CCCC3)nc3ccccc32)cc1 [Clemizole hydrochloride] | 56495
C1COC(NC(C2CC2)C2CC2)=N1 [Rilmenidine hemifumarate] | 56006

* * *

target: Human IP6K1 (Homo sapiens, UniProt Q92551); construct: GST (N, cleaved yes); made in house; host or cells: C43 E. coli, pGEX-6P-2; assay: IP6K1 high-throughput screen of the Sigma LOPAC (ADP-Glo Max, single point); assay type: biochemical; conditions: LOPAC single-point screen, ADP-Glo Max luminescence raw signal per well;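 further: final compound concentration 10µM in 5% DMSO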
Sequence (Q92551 whole entry): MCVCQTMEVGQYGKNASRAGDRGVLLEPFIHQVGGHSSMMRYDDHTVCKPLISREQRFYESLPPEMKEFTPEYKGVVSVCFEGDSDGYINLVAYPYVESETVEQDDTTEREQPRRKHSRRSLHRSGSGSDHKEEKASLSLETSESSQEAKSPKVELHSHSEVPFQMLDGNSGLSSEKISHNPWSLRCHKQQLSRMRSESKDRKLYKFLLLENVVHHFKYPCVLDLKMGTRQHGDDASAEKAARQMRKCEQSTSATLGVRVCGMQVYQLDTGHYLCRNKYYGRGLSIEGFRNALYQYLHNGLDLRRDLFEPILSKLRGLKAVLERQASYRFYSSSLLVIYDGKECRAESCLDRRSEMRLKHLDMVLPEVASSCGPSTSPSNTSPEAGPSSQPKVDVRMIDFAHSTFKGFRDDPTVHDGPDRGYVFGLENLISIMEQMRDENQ
Counter-ions that a name gives are not always drawn.
We label by threshold. Values of Raw Signal strictly beneath 50000 are 1.0. Values of 50000 and up are 0.0.

MOLECULE | CLASS LABEL
NC(C(=O)O)C(O)C(=O)O (racemic) [DL-threo-beta-hydroxyaspartic acid] | 0.0
COc1ccc([C@@H]2Sc3ccccc3N(CCN(C)C)C(=O)[C@@H]2OC(C)=O)cc1 [Diltiazem hydrochloride] | 0.0
Cl.NCC#Cc1ccccc1 [3-Phenylpropargylamine hydrochloride] | 0.0
NCC(=O)NCCC(c1ccccc1)c1ccccc1 [N-(3,3-Diphenylpropyl)glycinamide] | 0.0
Cl.Oc1cc2c(cc1O)C(c1ccccc1)CNCC2 (racemic) [(±)-SKF-38393 hydrochloride] | 1.0

* * *

target: Human IP6K1 (Homo sapiens); construct: GST (N, cleaved yes); made in house; host or cells: C43 E. coli, pGEX-6P-2; test: IP6K1 high-throughput screen of the Sigma LOPAC (ADP-Glo Max, single point); format: biochemical; conditions: LOPAC single-point screen, ADP-Glo Max luminescence raw signal per well

COMPOUND | Raw Signal
Br.CN=c1nc(-c2ccccc2)n(-c2ccccc2)s1 [SCH-202676 hydrobromide] | 51247
Br.Br.N=C(N)SCCc1ccc(CCSC(=N)N)cc1 [1,4-PBIT dihydrobromide] | 52088
CCn1cc(C(=O)[O-])c(=O)c2ccc(C)nc21.[Na+] [Nalidixic acid sodium] | 49665
Cc1nc2c(OCc3ccccc3)cccn2c1CC#N | 49264
OCCN(CCO)c1nc(N2CCCCC2)c2nc(N(CCO)CCO)nc(N3CCCCC3)c2n1 | 52429
CC(C)NCC(O)c1ccc(O)c(O)c1.Cl (single isomer, unassigned; (-)) [(-)-Isoproterenol hydrochloride] | 50939
C[N+](C)(C)CCCCCCCCCC[N+](C)(C)C.[Br-].[Br-] [Decamethonium dibromide] | 52379
CC1=C[C@@H]2c3cccc4[nH]cc(c34)C[C@H]2N(C)C1 | 53866

The measured values listed here are drawn from paper PMC5706701.
